Quick reference for Cmax among some compounds
protocol_text: PK and blood-brain barrier permeability in mice
Type: in vivo
run_parameters: mouse; male ICR mice, intravenous 1 mg/kg, plasma
Form entry: value (ng/mL) — number only.

Example entries begin here.
{"smiles_data": "CC(C)C[C@@H](NC(=O)[C@@H](Cc1ccccc1)NC(=O)N(CCN)Cc1ccccc1)C(=O)N[C@H](CCCCN)C(=O)N1CCC2(CC1)NC(=O)NC2=O", "attribute_measured": "Cmax", "units_label": "ng/mL", "value_observed": 4710}
{"smiles_data": "CC(C)C[C@@H](NC(=O)[C@@H](Cc1ccccc1)NC(=O)N(CCN)Cc1ccccc1)C(=O)N[C@H](CCCCN)C(=O)N1CCC(N)(C(=O)O)CC1", "attribute_measured": "Cmax", "units_label": "ng/mL", "value_observed": 2540}

Query compound follows.
So for "COC(=O)C1(N)CCN(C(=O)[C@@H](CCCCN)NC(=O)[C@@H](CC(C)C)NC(=O)[C@@H](Cc2ccccc2)NC(=O)N(CCN)Cc2ccccc2)CC1" , the logged Cmax turned out to be 2930

This collection of values is drawn from patent US20250230129A1.
